target: CHRM4 (Homo sapiens, UniProt P08173); construct: purchased Promega (in-house HiBiT-GPCR construct library, NanoBRET); experiment: NanoBRET screen HiBiT-CHRM4 in HEK293; assay type: binding; conditions: CHRM4; tracer 0.1μM
Sequence (P08173 whole entry): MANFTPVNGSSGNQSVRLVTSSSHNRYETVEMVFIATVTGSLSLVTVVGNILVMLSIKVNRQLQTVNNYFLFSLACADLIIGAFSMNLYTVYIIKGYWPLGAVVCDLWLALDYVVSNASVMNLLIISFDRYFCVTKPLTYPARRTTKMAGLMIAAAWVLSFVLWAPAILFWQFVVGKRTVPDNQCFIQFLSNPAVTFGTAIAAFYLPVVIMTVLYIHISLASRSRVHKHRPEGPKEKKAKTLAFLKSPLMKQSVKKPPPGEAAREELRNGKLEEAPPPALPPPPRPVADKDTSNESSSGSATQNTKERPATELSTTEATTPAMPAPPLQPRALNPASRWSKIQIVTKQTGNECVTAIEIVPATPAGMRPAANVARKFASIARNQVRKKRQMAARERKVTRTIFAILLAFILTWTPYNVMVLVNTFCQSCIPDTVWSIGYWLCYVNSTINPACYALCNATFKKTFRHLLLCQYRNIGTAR
I'd be grateful if you could share measured NanoBRET Fold Response for these entries.

Solved entries:
COc1ccccc1N1CCN(CCCCN2C(=O)c3ccc(CNC(=O)CCOCCOCCOCCOCCNC(=O)CCc4ccc5n4[B-](F)(F)[N+]4=C(c6ccc[nH]6)C=CC4=C5)cc3C2=O)CC1 [NAN-190-2-NB590]; 1.18
CCCn1c(=O)c2[nH]c(-c3ccc(OCC(=O)NCCNC(=O)CCOCCNC(=O)c4ccc(CNC(=O)CCc5ccc6n5[B-](F)(F)[N+]5=C(c7ccc[nH]7)C=CC5=C6)cc4)cc3)nc2n(CCC)c1=O [XAC-3-NB590]; 0.78

// next item, NanoBRET Fold Response requested
For CC(C)N(CC[C@H](c1ccccc1)c1cc(CCNC(=O)CCOCCOCCOCCOCCNC(=O)CCc2ccc3n2[B-](F)(F)[N+]2=C(c4ccc[nH]4)C=CC2=C3)ccc1O)C(C)C [Tolterodine-2-NB590] , what is its reported NanoBRET Fold Response? 2.75

Origin of the recorded values: paper PMC8151276
